The reported numbers originate from paper PMC5650142.

Study system: mouse GPR40 (Mus musculus)
Construct: expressed in transfected cells; host or cells: CHO-K1 (methods)
Sequence (Q76JU9 whole entry): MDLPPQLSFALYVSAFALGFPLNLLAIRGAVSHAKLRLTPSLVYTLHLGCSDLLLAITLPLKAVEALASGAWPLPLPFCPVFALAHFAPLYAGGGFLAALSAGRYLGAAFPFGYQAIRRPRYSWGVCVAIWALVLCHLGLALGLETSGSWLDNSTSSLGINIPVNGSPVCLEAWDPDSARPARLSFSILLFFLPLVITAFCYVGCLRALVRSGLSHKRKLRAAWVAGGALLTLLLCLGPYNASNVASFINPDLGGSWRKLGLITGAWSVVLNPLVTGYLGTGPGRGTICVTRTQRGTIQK
Experiment: Mouse GPR40 IP1 accumulation assay
Type: cell-based
Conditions used: Potency [EC50, nM] ± SD, Mouse, mean ± SD, n = 2–20; IP accumulation
Experimental: Stable cell lines expressing human GPR40 (hGPR40/HEK293), mouse GPR40 (mGPR40/CHO-K1), and rat GPR40 (rGPR40/CHO-K1) were cultured in DMEM media supplemented with 10% FBS, glutamine, non-essential amino acids, and penicillin/streptomycin. hGPR40/HEK293 & mGPR40/CHO-K1 cell media was supplemented with […] G418 (Life Technologies), while rGPR40/CHO-K1 cells were grown in […] blasticidin plus […] hygromycin (Life Technologies). […]
Measured quantity: EC50 (nM)
Reply numerically in nM, unit not repeated.

Q: Returns the measured EC50 for the input compound. Input: CC#C[C@@H](CC(=O)O)c1ccc(OCc2cccc(-c3ccc(C(F)(F)F)cc3)c2)cc1 [AMG-837, reference compound]
Result: 1.9
